So I've got a bunch of compounds here, and I need their EE (%) values.
assay: RNA encapsulation efficacy (EE %) by Quant-IT Ribogreen kit; type: physicochemical; conditions: LNP, Formulation No. 001, RNA No. 019 (hEPO)

Lab book: EE (%) of CCCCC/C=C\C/C=C\CCCCCCCC(=O)N[C@@H](COC(=O)NCCN1CCCCCC1)C(=O)OCCCCCCCC(=O)OC(CCCCCCCC)CCCCCCCC noted as 95.79%

Lab book: EE (%) of CCCCC/C=C\C/C=C\CCCCCCCCOC(=O)NC(COC(=O)NCCN1CCCCCC1)C(=O)OCCCCCC(=O)OCC(CCCCCCCC)CCCCCCCCCC (stereo not drawn) noted as 94.15%

Lab book: EE (%) of CCCCCCCCCCC(CCCCCCCC)COC(=O)CCCCCOC(=O)NC(COC(=O)NCCN1CCCCC1)C(=O)OCCCCCC(=O)OCC(CCCCCCCC)CCCCCCCCCC (stereo not drawn) noted as 97.29%

Lab book: EE (%) of CCCCCCCC/C=C\CCCCCCCC(=O)NC(COC(=O)NCCN1CCCCC1)C(=O)OCCCCCCCCOC(=O)C(CCCCCC)CCCCCCCC (stereo not drawn) noted as 96.00%

Lab book: EE (%) of CCCCCCCCCCC(CCCCCCCC)COC(=O)CCCCCOC(=O)NC(COC(=O)NCCN1CCCCCC1)C(=O)OCCCCCC(=O)OCC(CCCCCCCC)CCCCCCCCCC (stereo not drawn) noted as 96.60%

Lab book: EE (%) of CCCCC/C=C\CCOC(=O)CCCCCOC(=O)C(COC(=O)NCCN1CCCCCC1)NC(=O)OCCCCCCCCOC(=O)C(CCCCCC)CCCCCCCC (stereo not drawn) noted as 93.99%

Lab book: EE (%) of CCCCCCCCCCCOC(=O)CCCCCOC(=O)C(COC(=O)NCCN1CCCCCC1)NC(=O)OCCCCCCCCOC(=O)C(CCCCCC)CCCCCCCC (stereo not drawn) noted as 90.41%

Lab book: EE (%) of CCCCCCCCCC(=O)OCCCCCCCOC(=O)C(COC(=O)NCCN1CCCCCC1)NC(=O)OCCCCCCCCOC(=O)C(CCCCCC)CCCCCCCC (stereo not drawn) noted as 93.44%

Lab book: EE (%) of CCCCCCCCC(CCCCCC)C(=O)OCCCCCCCCOC(=O)NC(COC(=O)NCCN1CCCCC1)C(=O)OCCCCCCCCOC(=O)C(CCCCCC)CCCCCCCC (stereo not drawn) noted as 97.48%

Lab book: EE (%) of CCCCC/C=C\C/C=C\CCCCCCCC(=O)NC(COC(=O)NCCN1CCCCCC1)C(=O)OCCCCCCCC(=O)OC(CCCCCCCC)CCCCCCCC (stereo not drawn) noted as 92.20%

Lab book: EE (%) of CCCCC/C=C\C/C=C\CCCCCCCC(=O)NC(COC(=O)NCCN1CCCCC1)C(=O)OCCCCCCCC(=O)OC(CCCCCCCC)CCCCCCCC (stereo not drawn) noted as 94.25%

Lab book: EE (%) of CCCCC/C=C\C/C=C\CCCCCCCC(=O)N[C@@H](COC(=O)NCCN1CCCCC1)C(=O)OCCCCCCCC(=O)OC(CCCCCCCC)CCCCCCCC noted as 90.47%

All figures here come from patent US20260200849A1.
